Every entry's value here was drawn from patent US10517862B2.

Kindly supply the reported LD50 at 7 days values for the records listed here.
testMethodNotes: in vivo
assaySetup: both sexes, mouse, in vivo, po; single intragastric administration in mice; read-out: LD50 (po, mg/kg)

Record O=C1CCc2cc(CCCCN3CCC(c4noc5cc(F)ccc45)CC3)cc3c2N1CCC3 . Reported LD50 at 7 days: > 2000 mg/kg

Record O=C(CCCN1CCC(c2noc3cc(F)ccc23)CC1)c1cc2c3c(c1)CCC(=O)N3CCC2 . Reported LD50 at 7 days: > 2000 mg/kg

Record O=C(CCN1CCC(c2noc3cc(F)ccc23)CC1)c1cc2c3c(c1)CCN3C(=O)CC2 . Reported LD50 at 7 days: > 2000 mg/kg

Record O=C1Cc2cc(CCN3CCN(c4nsc5ccccc45)CC3)c(Cl)cc2N1 . Reported LD50 at 7 days: > 2000 mg/kg

Record O=C(CCN1CCC(c2noc3cc(F)ccc23)CC1)c1cc2c3c(c1)CCC(=O)N3CCC2 . Reported LD50 at 7 days: > 2000 mg/kg

----------
targetEntity: 5HT1A receptor (Rattus norvegicus, UniProt P19327)
Construct: Rats were decapitated on ice; from tissue; host or cells: rat brain striatum
Sequence (P19327 1-422): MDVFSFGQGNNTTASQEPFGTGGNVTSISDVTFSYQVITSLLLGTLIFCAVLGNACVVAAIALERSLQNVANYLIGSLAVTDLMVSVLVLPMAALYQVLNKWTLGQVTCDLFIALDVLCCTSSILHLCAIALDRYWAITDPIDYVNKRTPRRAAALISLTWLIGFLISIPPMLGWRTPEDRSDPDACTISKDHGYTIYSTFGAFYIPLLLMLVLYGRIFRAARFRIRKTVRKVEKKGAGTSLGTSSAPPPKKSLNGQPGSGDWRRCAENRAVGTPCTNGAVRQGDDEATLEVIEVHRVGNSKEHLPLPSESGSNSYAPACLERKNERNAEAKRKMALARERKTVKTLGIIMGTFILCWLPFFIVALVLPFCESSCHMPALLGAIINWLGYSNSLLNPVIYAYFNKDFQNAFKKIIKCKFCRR
testMethodNotes: 5HT1A receptor binding assay (3H-8-OH-DPAT, rat striatum membrane)
assaySetup: test compound final concentration 10^−5 M; 3H-8-OH-DPAT; rat striatum membrane; read-out: 5HT1A Inhibition rate (%)
Kindly supply the reported inhibition at 10 µM values for the records listed here.
# output: bare number, implied unit %

Record O=C1CCc2cc(CCCCCN3CCC(c4noc5cc(F)ccc45)CC3)cc3c2N1CC3 . Reported inhibition at 10 µM: 83

Record O=C(CN1CCC(c2noc3cc(F)ccc23)CC1)c1cc2c3c(c1)CCC(=O)N3CCC2 . Reported inhibition at 10 µM: 54.6

Record O=C(CCCN1CCC(c2noc3cc(F)ccc23)CC1)c1cc2c3c(c1)CCN3C(=O)CC2 . Reported inhibition at 10 µM: 103

Record CC1CC(=O)N2CCCc3cc(CCCCN4CCC(c5noc6cc(F)ccc56)CC4)cc1c32 (centres unmarked) . Reported inhibition at 10 µM: 82.9

Record O=C1CCc2cc(C(O)CCCCN3CCC(c4noc5cc(F)ccc45)CC3)cc3c2N1CC3 (centres unmarked) . Reported inhibition at 10 µM: 87.1

Record CC1CC(=O)N2CCCc3cc(C(=O)CCCN4CCC(c5noc6cc(F)ccc56)CC4)cc1c32 (centres unmarked) . Reported inhibition at 10 µM: 84

Record O=C1CCc2cc(C(O)CCN3CCC(c4noc5cc(F)ccc45)CC3)cc3c2N1CCC3 (centres unmarked) . Reported inhibition at 10 µM: 91.6

Record O=C(CCCN1CCC(c2noc3cc(F)ccc23)CC1)c1cc2c3c(c1F)CCC(=O)N3CC2 . Reported inhibition at 10 µM: 91.2

----------
targetEntity: 5HT1A receptor (Rattus norvegicus)
Construct: Rats were decapitated on ice; from tissue; host or cells: rat brain striatum
testMethodNotes: 5HT1A receptor binding assay (3H-8-OH-DPAT, rat striatum membrane)
assaySetup: test compound final concentration 10^−5 M; 3H-8-OH-DPAT; rat striatum membrane; read-out: 5HT1A Inhibition rate (%)
propertyMeasured: inhibition at 10 µM (%)
# output: bare number, implied unit %

Reported 5HT1A receptor (Rattus norvegicus) inhibition at 10 µM for item O=C(CCCCN1CCC(c2noc3cc(F)ccc23)CC1)c1cc2c3c(c1)CCC(=O)N3CCC2 was 89.5

Reported 5HT1A receptor (Rattus norvegicus) inhibition at 10 µM for item O=C1CCc2cc(CCCN3CCC(c4noc5cc(F)ccc45)CC3)cc3c2N1CC3 was 87

Reported 5HT1A receptor (Rattus norvegicus) inhibition at 10 µM for item O=C(CN1CCC(c2noc3cc(F)ccc23)CC1)c1cc2c3c(c1)CCN3C(=O)CC2 was 58.6

Reported 5HT1A receptor (Rattus norvegicus) inhibition at 10 µM for item O=C(CCCCN1CCC(c2noc3cc(F)ccc23)CC1)c1cc2c3c(c1)CCN3C(=O)CC2 was 84.3

Reported 5HT1A receptor (Rattus norvegicus) inhibition at 10 µM for item O=C(CCCN1CCC(c2noc3cc(F)ccc23)CC1)c1cc2c3c(c1)CCC(=O)N3CCC2 was 99.8

Reported 5HT1A receptor (Rattus norvegicus) inhibition at 10 µM for item O=C1CCc2cc(C(O)CCCN3CCC(c4noc5cc(F)ccc45)CC3)cc3c2N1CC3 (centres unmarked) was 99.4

Reported 5HT1A receptor (Rattus norvegicus) inhibition at 10 µM for item O=C1CCc2cc(CCCN3CCC(c4noc5cc(F)ccc45)CC3)cc3c2N1CCC3 was 88

Reported 5HT1A receptor (Rattus norvegicus) inhibition at 10 µM for item O=C1CCc2cc(CCCCN3CCC(c4noc5cc(F)ccc45)CC3)cc3c2N1CCC3 was 99.2

Reported 5HT1A receptor (Rattus norvegicus) inhibition at 10 µM for item O=C1CCc2cc(C(O)CCCN3CCC(c4noc5cc(F)ccc45)CC3)cc3c2N1CCC3 (centres unmarked) was 99.6

Reported 5HT1A receptor (Rattus norvegicus) inhibition at 10 µM for item O=C(CCCN1CCC(c2noc3cc(F)ccc23)CC1)c1cc2c3c(c1F)CCN3C(=O)CC2 was 93.3

Reported 5HT1A receptor (Rattus norvegicus) inhibition at 10 µM for item O=C1CCc2cc(C(O)CCN3CCC(c4noc5cc(F)ccc45)CC3)cc3c2N1CC3 (centres unmarked) was 93.6

Reported 5HT1A receptor (Rattus norvegicus) inhibition at 10 µM for item O=C(CCN1CCC(c2noc3cc(F)ccc23)CC1)c1cc2c3c(c1)CCC(=O)N3CCC2 was 93.9

Reported 5HT1A receptor (Rattus norvegicus) inhibition at 10 µM for item O=C1CCc2cc(CCCCN3CCC(c4noc5cc(F)ccc45)CC3)cc3c2N1CC3 was 99.1

Reported 5HT1A receptor (Rattus norvegicus) inhibition at 10 µM for item O=C(CCN1CCC(c2noc3cc(F)ccc23)CC1)c1cc2c3c(c1)CCN3C(=O)CC2 was 96.5

----------
Kindly supply the reported D2 Inhibition rate (%) values for the records listed here.
System: D2 receptor
testMethodNotes: D2 receptor binding assay (3H-Spiperone, rat striatum membrane)
assaySetup: test compound final concentration 10^−5 M; 3H-Spiperone; rat striatum membrane
# output: bare number, implied unit %

Record O=C(CCCN1CCC(c2noc3cc(F)ccc23)CC1)c1cc2c3c(c1)CCC(=O)N3CCC2 . Reported D2 Inhibition rate (%): 99.40

Record O=C(CCCN1CCC(c2noc3cc(F)ccc23)CC1)c1cc2c3c(c1F)CCN3C(=O)CC2 . Reported D2 Inhibition rate (%): 92.01

Record O=C1CCc2cc(C(O)CCCN3CCC(c4noc5cc(F)ccc45)CC3)cc3c2N1CCC3 (stereo not drawn) . Reported D2 Inhibition rate (%): 98.48

Record O=C(CCCN1CCC(c2noc3cc(F)ccc23)CC1)c1cc2c3c(c1)CCN3C(=O)CC2 . Reported D2 Inhibition rate (%): 103.83

Record O=C(CN1CCC(c2noc3cc(F)ccc23)CC1)c1cc2c3c(c1)CCC(=O)N3CCC2 . Reported D2 Inhibition rate (%): 45.89

Record O=C1CCc2cc(C(O)CCN3CCC(c4noc5cc(F)ccc45)CC3)cc3c2N1CCC3 (stereo not drawn) . Reported D2 Inhibition rate (%): 97.67

----------
Test system: α1 norepinephrine receptor
testMethodNotes: α1 norepinephrine receptor binding assay (3H-prazosin, rat cortex membrane)
assaySetup: test compound final concentration 10^−5 M; 3H-prazosin; rat cortex membrane
From the text: Preparation of Receptor Membrane of Norepinephrine α1 Norepinephrine Receptor Binding Assay
Cut-off 50% on α1 Inhibition rate (%), inclusive. At or above means y; below means n.

In: State whether the measured α1 Inhibition rate (%) reaches 50%, counting equality as reaching it, for O=C(CN1CCC(c2noc3cc(F)ccc23)CC1)c1cc2c3c(c1)CCC(=O)N3CCC2 [Compound 1]
Out: y

In: State whether the measured α1 Inhibition rate (%) reaches 50%, counting equality as reaching it, for O=C(CN1CCC(c2noc3cc(F)ccc23)CC1)c1cc2c3c(c1)CCN3C(=O)CC2 [Compound 11]
Out: y

In: State whether the measured α1 Inhibition rate (%) reaches 50%, counting equality as reaching it, for O=C(CCN1CCC(c2noc3cc(F)ccc23)CC1)c1cc2c3c(c1)CCC(=O)N3CCC2 [Compound 2]
Out: y

In: State whether the measured α1 Inhibition rate (%) reaches 50%, counting equality as reaching it, for O=C1CCc2cc(C(O)CCCCN3CCC(c4noc5cc(F)ccc45)CC3)cc3c2N1CC3 (stereo not shown) [Compound 19]
Out: y

In: State whether the measured α1 Inhibition rate (%) reaches 50%, counting equality as reaching it, for O=C(CCCCN1CCC(c2noc3cc(F)ccc23)CC1)c1cc2c3c(c1)CCC(=O)N3CCC2 [Compound 8]
Out: n

In: State whether the measured α1 Inhibition rate (%) reaches 50%, counting equality as reaching it, for O=C(CCCN1CCC(c2noc3cc(F)ccc23)CC1)c1cc2c3c(c1F)CCN3C(=O)CC2 [Compound 21]
Out: n

In: State whether the measured α1 Inhibition rate (%) reaches 50%, counting equality as reaching it, for O=C1CCc2cc(C(O)CCCN3CCC(c4noc5cc(F)ccc45)CC3)cc3c2N1CCC3 (stereo not shown) [Compound 6]
Out: y

In: State whether the measured α1 Inhibition rate (%) reaches 50%, counting equality as reaching it, for CC1CC(=O)N2CCCc3cc(C(=O)CCCN4CCC(c5noc6cc(F)ccc56)CC4)cc1c32 (stereo not shown) [Compound 9]
Out: y

In: State whether the measured α1 Inhibition rate (%) reaches 50%, counting equality as reaching it, for O=C1CCc2cc(CCCCN3CCC(c4noc5cc(F)ccc45)CC3)cc3c2N1CC3 [Compound 17]
Out: n

In: State whether the measured α1 Inhibition rate (%) reaches 50%, counting equality as reaching it, for O=C(CCCN1CCC(c2noc3cc(F)ccc23)CC1)c1cc2c3c(c1F)CCC(=O)N3CC2 [Compound 22]
Out: y

In: State whether the measured α1 Inhibition rate (%) reaches 50%, counting equality as reaching it, for O=C1CCc2cc(C(O)CCN3CCC(c4noc5cc(F)ccc45)CC3)cc3c2N1CC3 (stereo not shown) [Compound 13]
Out: y

In: State whether the measured α1 Inhibition rate (%) reaches 50%, counting equality as reaching it, for O=C(CCCN1CCC(c2noc3cc(F)ccc23)CC1)c1cc2c3c(c1)CCC(=O)N3CCC2 [Compound 5]
Out: n

In: State whether the measured α1 Inhibition rate (%) reaches 50%, counting equality as reaching it, for O=C1CCc2cc(CCCCN3CCC(c4noc5cc(F)ccc45)CC3)cc3c2N1CCC3 [Compound 7]
Out: y
